TEST: Visual assessment score (clarity of gel in 1 cm cuvette)
Type: physicochemical
CONDITION_SUMMARY: 9% REF4 plus 1% of the named material in 60:40 hydrogenated polydecene:DC245

| COMPOUND | Clarity Visual (appearance) |
| --- | --- |
| CCCCCCCCCC(=O)OCC1OC(OC2C(COC(=O)CCCCCCCCC)OC(OC(=O)CCCCCCCCC)C(OC(=O)CCCCCCCCC)C2OC(=O)CCCCCCCCC)C(OC(=O)CCCCCCCCC)C(OC(=O)CCCCCCCCC)C1OC(=O)CCCCCCCCC (mixture of isomers) [REF 4, reference compound] | opaque |
| CCCCCCCCCC(=O)OCC1OC(O)C(OC(=O)CCCCCCCCC)C(OC(=O)CCCCCCCCC)C1OC1OC(COC(=O)CCCCCCCCC)C(OC(=O)CCCCCCCCC)C(OC(=O)CCCCCCCCC)C1OC(=O)CCCCCCCCC (mixture of isomers) [REF 6, reference compound] | opaque |
| CCCCCCCCCC(=O)OCC1OC(OC2C(COC(=O)CCCCCCCCC)OC(OC(=O)C3CCCCC3)C(OC(=O)CCCCCCCCC)C2OC(=O)CCCCCCCCC)C(OC(=O)CCCCCCCCC)C(OC(=O)CCCCCCCCC)C1OC(=O)CCCCCCCCC (mixture of isomers) | translucent |
| CCCCCCCCCC(=O)OCC1OC(OC2C(COC(=O)CCCCCCCCC)OC(OC(=O)c3ccc4ccccc4c3)C(OC(=O)CCCCCCCCC)C2OC(=O)CCCCCCCCC)C(OC(=O)CCCCCCCCC)C(OC(=O)CCCCCCCCC)C1OC(=O)CCCCCCCCC (mixture of isomers) | translucent |

---

TEST: Visual assessment score (clarity of gel in 1 cm cuvette)
Assay type: physicochemical
CONDITION_SUMMARY: 9% REF4 plus 1% of the named material; scale −12 to 8

| COMPOUND | Clarity Visual (assessment score) |
| --- | --- |
| CCCCCCCCCC(=O)OCC1OC(OC2C(COC(=O)CCCCCCCCC)OC(OC(=O)c3ccccc3)C(OC(=O)CCCCCCCCC)C2OC(=O)CCCCCCCCC)C(OC(=O)CCCCCCCCC)C(OC(=O)CCCCCCCCC)C1OC(=O)CCCCCCCCC (mixture of isomers) [Ex 2.1] | −1 |
| CCCCCCCCCC(=O)OCC1OC(OC2C(COC(=O)CCCCCCCCC)OC(OC(=O)c3ccc4ccccc4c3)C(OC(=O)CCCCCCCCC)C2OC(=O)CCCCCCCCC)C(OC(=O)CCCCCCCCC)C(OC(=O)CCCCCCCCC)C1OC(=O)CCCCCCCCC (mixture of isomers) | 0 |
| CCCCCCCCCC(=O)OCC1OC(OC2C(COC(=O)CCCCCCCCC)OC(OC(=O)C3CCCCC3)C(OC(=O)CCCCCCCCC)C2OC(=O)CCCCCCCCC)C(OC(=O)CCCCCCCCC)C(OC(=O)CCCCCCCCC)C1OC(=O)CCCCCCCCC (mixture of isomers) | −5 |
| CCCCCCCCCC(=O)OCC1OC(OC2C(COC(=O)CCCCCCCCC)OC(OC(=O)c3ccc(-c4ccccc4)cc3)C(OC(=O)CCCCCCCCC)C2OC(=O)CCCCCCCCC)C(OC(=O)CCCCCCCCC)C(OC(=O)CCCCCCCCC)C1OC(=O)CCCCCCCCC (mixture of isomers) | −3 |

---

TEST: Gelling of water-immiscible cosmetic liquids in 96 well glass micro-titre plate
Format: physicochemical
Set-up: key: gel; g4: gel after overnight (18 hrs) storage at 4° C.; g22: gel after overnight (18 hrs) storage at 22° C.; sg: soft gel; sg22: soft gel after overnight (18 hrs) storage at 22° C.; solution; *: the test at 4° C. was not carried out
CONDITION_SUMMARY: 5% cellobiose ester in DC556

| COMPOUND | gelling of DC556 |
| --- | --- |
| CCCCCCCCCCCC(=O)OC1OC(COC(=O)CCCCCCCC)C(OC2OC(COC(=O)CCCCCCCC)C(OC(=O)CCCCCCCC)C(OC(=O)CCCCCCCC)C2OC(=O)CCCCCCCC)C(OC(=O)CCCCCCCC)C1OC(=O)CCCCCCCC (mixture of isomers) [Ex 1.23] | gel |
| CCCCCCCCC(=O)OCC1OC(OC2C(COC(=O)CCCCCCCC)OC(OC(=O)CCCCC)C(OC(=O)CCCCCCCC)C2OC(=O)CCCCCCCC)C(OC(=O)CCCCCCCC)C(OC(=O)CCCCCCCC)C1OC(=O)CCCCCCCC (mixture of isomers) [Ex 1.21] | g22 |
| CCCCCCCCCCCCCC(=O)OC1OC(COC(=O)CCCCCCCC)C(OC2OC(COC(=O)CCCCCCCC)C(OC(=O)CCCCCCCC)C(OC(=O)CCCCCCCC)C2OC(=O)CCCCCCCC)C(OC(=O)CCCCCCCC)C1OC(=O)CCCCCCCC (mixture of isomers) [Ex 1.24] | gel |
| CCCCCCCCC(=O)OCC1OC(OC2C(COC(=O)CCCCCCCC)OC(OC(=O)c3ccc(-c4ccccc4)cc3)C(OC(=O)CCCCCCCC)C2OC(=O)CCCCCCCC)C(OC(=O)CCCCCCCC)C(OC(=O)CCCCCCCC)C1OC(=O)CCCCCCCC (mixture of isomers) [Ex 1.15] | gel |

---

TEST: Gelling of water-immiscible cosmetic liquids in 96 well glass micro-titre plate
Format: physicochemical
Parameters: key: gel; g4: gel after overnight (18 hrs) storage at 4° C.; g22: gel after overnight (18 hrs) storage at 22° C.; sg: soft gel; sg22: soft gel after overnight (18 hrs) storage at 22° C.; solution; *: the test at 4° C. was not carried out
CONDITION_SUMMARY: 10% cellobiose ester in ISA; 150° C. 2.5 hours, cooled to ambient
MEASUREMENT_LABEL: gelling of ISA

| COMPOUND | MEASUREMENT_LABEL | MEASURED |
| --- | --- | --- |
| CCCCCCCCC(=O)OCC1OC(OC2C(COC(=O)CCCCCCCC)OC(OC(=O)CCCCC)C(OC(=O)CCCCCCCC)C2OC(=O)CCCCCCCC)C(OC(=O)CCCCCCCC)C(OC(=O)CCCCCCCC)C1OC(=O)CCCCCCCC (mixture of isomers) [Ex 1.21] | gelling of ISA | g22 |
| CCCCCCCCC(=O)OCC1OC(OC2C(COC(=O)CCCCCCCC)OC(OC(C)=O)C(OC(=O)CCCCCCCC)C2OC(=O)CCCCCCCC)C(OC(=O)CCCCCCCC)C(OC(=O)CCCCCCCC)C1OC(=O)CCCCCCCC (mixture of isomers) [Ex 1.5] | gelling of ISA | gel |
| CCCCCCCCC(=O)OCC1OC(OC2C(COC(=O)CCCCCCCC)OC(OC(C)=O)C(OC(=O)CCCCCCCC)C2OC(=O)CCCCCCCC)C(OC(=O)CCCCCCCC)C(OC(=O)CCCCCCCC)C1OC(=O)CCCCCCCC (mixture of isomers) [Ex 1.6] | gelling of ISA | gel |
| CCCCCCCCC(=O)OCC1OC(OC2C(COC(=O)CCCCCCCC)OC(OC(=O)CCCCCC)C(OC(=O)CCCCCCCC)C2OC(=O)CCCCCCCC)C(OC(=O)CCCCCCCC)C(OC(=O)CCCCCCCC)C1OC(=O)CCCCCCCC (mixture of isomers) [Ex 1.22] | gelling of ISA | g22 |
| CCCCCCCCCC(=O)OCC1OC(OC2C(COC(=O)CCCCCCCCC)OC(OC(=O)C3CCCCC3)C(OC(=O)CCCCCCCCC)C2OC(=O)CCCCCCCCC)C(OC(=O)CCCCCCCCC)C(OC(=O)CCCCCCCCC)C1OC(=O)CCCCCCCCC (mixture of isomers) [Ex 2.10] | gelling of ISA | gel |
| CCCCCCCCC(=O)OCC1OC(OC2C(COC(=O)CCCCCCCC)OC(OC(=O)c3ccc4ccccc4c3)C(OC(=O)CCCCCCCC)C2OC(=O)CCCCCCCC)C(OC(=O)CCCCCCCC)C(OC(=O)CCCCCCCC)C1OC(=O)CCCCCCCC (mixture of isomers) [Ex 1.3] | gelling of ISA | gel |
| CCCCCCCCCCCCCCCC(=O)OC1OC(COC(=O)CCCCCCCCC)C(OC2OC(COC(=O)CCCCCCCCC)C(OC(=O)CCCCCCCCC)C(OC(=O)CCCCCCCCC)C2OC(=O)CCCCCCCCC)C(OC(=O)CCCCCCCCC)C1OC(=O)CCCCCCCCC (mixture of isomers) [Ex 2.12] | gelling of ISA | gel |
| CCCCCCCCC(=O)OCC1OC(OC2C(COC(=O)CCCCCCCC)OC(OC(=O)c3ccccc3)C(OC(=O)CCCCCCCC)C2OC(=O)CCCCCCCC)C(OC(=O)CCCCCCCC)C(OC(=O)CCCCCCCC)C1OC(=O)CCCCCCCC (mixture of isomers) [Ex 1.2] | gelling of ISA | gel |
| CCCCCCCCC(=O)OCC1OC(OC2C(COC(=O)CCCCCCCC)OC(OC(=O)C3CCCC3)C(OC(=O)CCCCCCCC)C2OC(=O)CCCCCCCC)C(OC(=O)CCCCCCCC)C(OC(=O)CCCCCCCC)C1OC(=O)CCCCCCCC (mixture of isomers) [Ex 3.5] | gelling of ISA | g22 |
| CCCCCCCCCCCCCC(=O)OC1OC(COC(=O)CCCCCCCC)C(OC2OC(COC(=O)CCCCCCCC)C(OC(=O)CCCCCCCC)C(OC(=O)CCCCCCCC)C2OC(=O)CCCCCCCC)C(OC(=O)CCCCCCCC)C1OC(=O)CCCCCCCC (mixture of isomers) [Ex 1.24] | gelling of ISA | gel |
| CCCCCCCCC(=O)OCC1OC(OC2C(COC(=O)CCCCCCCC)OC(OC(=O)CCC)C(OC(=O)CCCCCCCC)C2OC(=O)CCCCCCCC)C(OC(=O)CCCCCCCC)C(OC(=O)CCCCCCCC)C1OC(=O)CCCCCCCC (mixture of isomers) [Ex 1.18] | gelling of ISA | gel |
| CCCCCCCCCCCC(=O)OC1OC(COC(=O)CCCCCCCC)C(OC2OC(COC(=O)CCCCCCCC)C(OC(=O)CCCCCCCC)C(OC(=O)CCCCCCCC)C2OC(=O)CCCCCCCC)C(OC(=O)CCCCCCCC)C1OC(=O)CCCCCCCC (mixture of isomers) [Ex 1.23] | gelling of ISA | g22 |
| CCCCCCCCC(=O)OCC1OC(OC2C(COC(=O)CCCCCCCC)OC(OC(=O)c3ccc(-c4ccccc4)cc3)C(OC(=O)CCCCCCCC)C2OC(=O)CCCCCCCC)C(OC(=O)CCCCCCCC)C(OC(=O)CCCCCCCC)C1OC(=O)CCCCCCCC (mixture of isomers) [Ex 1.15] | gelling of ISA | gel |
| CCCCCCCCC(=O)OCC1OC(OC2C(COC(=O)CCCCCCCC)OC(OC(=O)CC)C(OC(=O)CCCCCCCC)C2OC(=O)CCCCCCCC)C(OC(=O)CCCCCCCC)C(OC(=O)CCCCCCCC)C1OC(=O)CCCCCCCC (mixture of isomers) [Ex 1.16] | gelling of ISA | gel |
| CCCCCCCCC(=O)OCC1OC(OC2C(COC(=O)CCCCCCCC)OC(OC(=O)c3ccccc3)C(OC(=O)CCCCCCCC)C2OC(=O)CCCCCCCC)C(OC(=O)CCCCCCCC)C(OC(=O)CCCCCCCC)C1OC(=O)CCCCCCCC (mixture of isomers) [Ex 1.1] | gelling of ISA | gel |
| CCCCCCCCCC(=O)OCC1OC(OC2C(COC(=O)CCCCCCCCC)OC(OC(=O)CCCCC)C(OC(=O)CCCCCCCCC)C2OC(=O)CCCCCCCCC)C(OC(=O)CCCCCCCCC)C(OC(=O)CCCCCCCCC)C1OC(=O)CCCCCCCCC (mixture of isomers) [Ex 2.11] | gelling of ISA | gel |
